EC50 values by entry
# System: HIV-IIIb
# EXPERIMENT NOTES: Test A: Antiviral Assays in MT4 Cells
# Type: cell-based
# CONDITION INFO: Human immunodeficiency virus 1, IIIB, MT4, 120 h, MT-4 cells infected with HIV-IIIb (0.004 m.o.i.), 5 days of incubation, CellTiter-Glo chemiluminescence readout; read-out: EC50
RECORDED METRIC: EC50 (nM)

[[record]]
molecule = "Cc1cc2cc(-c3ccncc3)ccc2c(-c2ccc(Cl)cc2)c1[C@H](OC(C)(C)C)C(=O)O"
experimental_system = "HIV-IIIb"
reported = 120

[[record]]
molecule = "C=Cc1ccc2cc(C)c(C(OC(C)(C)C)C(=O)O)c(-c3ccc(Cl)cc3)c2c1 (stereo not shown)"
experimental_system = "HIV-IIIb"
reported = 930

[[record]]
molecule = "Cc1cc2ccccc2c(C2=CCC(C)(C)CC2)c1[C@H](OC(C)(C)C)C(=O)O"
experimental_system = "HIV-IIIb"
reported = 11

[[record]]
molecule = "Cc1cc2ccc(C#CC(C)(C)N)cc2c(-c2ccc(Cl)cc2)c1C(OC(C)(C)C)C(=O)O (stereo not shown)"
experimental_system = "HIV-IIIb"
reported = 18

